Every entry's value here was drawn from patent US9505734B2.

# System: Mice;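 further: mice weighing 18–20 g, both sexes in equal proportion within each group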
# recorded_conditions: mice, 10 mice/group, single intragastric dose 750 mg/kg, within one week
So basically: Behaviors after administration with the compound to be tested (deaths) at 2 dead or higher? That is condition met. Lower than 2 dead? That is condition not met.

compound: CCOc1ccc(Cc2cc(C3SC(CO)CC(O)C3O)c(OC)cc2C)cc1 (centres unmarked) [drawing 289]
class: condition not met
//
compound: CC1OC(c2ccc(Cl)c(Cc3ccc(O[C@H]4CCOC4)cc3)c2)C(O)C(O)C1O (some centres unmarked) [drawing 286]
class: condition not met
//
compound: OCC1OC(c2ccc(F)c(Cc3cc4ccccc4s3)c2)CC(O)C1O (centres unmarked) [drawing 285]
class: condition met
//
compound: CCOc1ccc(Cc2cc(C3OC(CO)C(O)C(O)C3O)ccc2Cl)cc1 (centres unmarked) [drawing 264]
class: condition met
//
compound: Cc1ccc(C2CC(O)C(O)C(CO)O2)cc1Cc1ccc(-c2ccc(F)cc2)s1 (centres unmarked) [drawing 272]
class: condition met
//
compound: OCC1OC(c2ccc(Cl)c(Cc3ccc(O[C@H]4CCOC4)cc3)c2)C(O)C(O)C1O (some centres unmarked) [drawing 276]
class: condition met
